experimental-system: human serum albumin (HSA) (Homo sapiens)
Sequence (P02768 25-609): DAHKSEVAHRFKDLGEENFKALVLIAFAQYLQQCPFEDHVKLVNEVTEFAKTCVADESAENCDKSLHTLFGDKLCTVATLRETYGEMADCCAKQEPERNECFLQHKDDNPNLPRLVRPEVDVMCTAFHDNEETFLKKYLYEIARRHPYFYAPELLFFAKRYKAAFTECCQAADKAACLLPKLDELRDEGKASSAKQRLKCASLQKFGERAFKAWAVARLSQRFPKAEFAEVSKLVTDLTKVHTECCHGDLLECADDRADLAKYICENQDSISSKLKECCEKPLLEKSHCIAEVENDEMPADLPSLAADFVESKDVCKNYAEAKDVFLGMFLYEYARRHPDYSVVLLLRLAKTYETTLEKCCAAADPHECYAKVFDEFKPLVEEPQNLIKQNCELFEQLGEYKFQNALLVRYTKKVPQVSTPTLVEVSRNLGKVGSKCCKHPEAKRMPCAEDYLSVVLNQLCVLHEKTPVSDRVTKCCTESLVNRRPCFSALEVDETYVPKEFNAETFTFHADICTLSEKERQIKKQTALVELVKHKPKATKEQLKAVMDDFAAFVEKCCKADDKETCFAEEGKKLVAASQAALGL
assay-method-text: fluorescence titration
Format: binding
metric: pKd
Kindly note that pKd refers to -log10 of the concentration in mol/L and answer with the value alone.

Prompt: Write down measured pKd (human serum albumin (HSA) (Homo sapiens)) for this compound. CC1(C)OC(=C(C#N)C#N)C(C#N)=C1/C=C/c1ccc(O)cc1 [compound 2, fluorophore 2]
Response: 5.28
